Provenance of the data: PubChem BioAssay AID1851

Tested on: Cytochrome P450 2D6 (Homo sapiens)
Method summary: Cytochrome panel assay with activity outcomes
Condition notes: recombinant CYP, pro-luciferin dealkylation, luminescence, p450-cyp2d6; series mostly up to 57.1 µM
Out of some 16,000 compounds screened, about 2,600 (16%) were called active. Another 20% or so got no clear call; they are omitted. Calls come from the whole dose curve; as a rule, active = well fitted curve in the direction sought with a large enough effect; inconclusive = small, poorly fitted or top-dose-only effect, or effect the other way; inactive = no such curve, though single readings can be large or run the other way. Not all results are given here.
// allowed return values: active, inactive

Each compound tested received a call. Report the one for "CC1CCN(c2cc(N3CCC(C)CC3)c([N+](=O)[O-])cc2/C=C(\C#N)c2nn(-c3ccccc3)c(N)c2C#N)CC1" .
inactive

Each compound tested received a call. Report the one for "O=C(Cn1nnc(-c2ccccc2)n1)OCc1ccccc1" .
inactive

Each compound tested received a call. Report the one for "CCCCCNCc1cccc(Br)c1" .
active

Each compound tested received a call. Report the one for "CCC(=O)N(C)/C=C1\Sc2ccccc2C1=O" .
inactive

Each compound tested received a call. Report the one for "Cc1[nH]n2c(=O)c(C#N)c(-c3ccccc3)nc2c1-c1ccccc1" .
inactive

Each compound tested received a call. Report the one for "CN(C)S(=O)(=O)Oc1cccc(C(=O)Nc2ccccc2Cl)c1" .
inactive

Each compound tested received a call. Report the one for "Cc1cc(C=O)c(C)n1-c1ccc(N2CCCCC2)c([N+](=O)[O-])c1" .
inactive

Each compound tested received a call. Report the one for "O=C(O)CP(=O)(O)O" .
inactive

Each compound tested received a call. Report the one for "CC(=O)OC[C@@H]1O[C@@H](O/N=C2/C[C@@H](O)[C@@H](O)[C@@H]3[C@@H]4C(=O)N(Cc5ccc6c(c5)OCO6)C(=O)[C@H]4CC[C@H]23)[C@H](OC(C)=O)[C@H](OC(C)=O)[C@@H]1OC(C)=O" .
active

Each compound tested received a call. Report the one for CCC1CC(CSc2ncn[nH]2)OC1=O (centres undefined) .
inactive

Each compound tested received a call. Report the one for CCCCNC(=O)CN1C(=O)NC2(CCCc3ccccc32)C1=O (centres undefined) .
inactive

Each compound tested received a call. Report the one for CCC1Oc2ccccc2N(CC(=O)NCCCN2CCCCC2C)C1=O (centres undefined) .
active

Each compound tested received a call. Report the one for "Cc1ccc(C(=O)c2c[nH]c(C(=O)NCCCN3CCOCC3)c2)cc1" .
inactive

Each compound tested received a call. Report the one for "O=C(O)c1ccccc1-c1ccccc1C(=O)Nc1ccccc1" .
inactive

Each compound tested received a call. Report the one for "Cc1nc2cnc(N3CCOCC3)nc2n(C)c1=O" .
inactive

Each compound tested received a call. Report the one for "CCCN1C(=O)/C(=C/c2ccc(C)s2)SC1=Nc1ccc(OC)cc1" .
inactive

Each compound tested received a call. Report the one for "O=C(N/N=C/C=C/c1ccccc1)c1cc2c(ccc3ccccc32)o1" .
inactive

Each compound tested received a call. Report the one for "CSc1c(-c2ccccc2)nc2ccc(Cl)cc2c1C(=O)O" .
inactive

Each compound tested received a call. Report the one for "COc1cc(OC)c(C(=O)CCCCN2CCC3(CC2)NC(=O)NC3=O)cc1NS(=O)(=O)c1ccc(C(F)(F)F)cc1" .
inactive

Each compound tested received a call. Report the one for "Cc1ccc(OCC(=O)N/N=C\c2c(C)n(C)c3ccccc23)c([N+](=O)[O-])c1" .
inactive

Each compound tested received a call. Report the one for "Cc1ccc(/C=C2\Sc3ccccc3C2=O)s1" .
active

Each compound tested received a call. Report the one for "Cc1c2c(nc3c(C(=O)NC4CCCC4)cnn13)CCCC2" .
inactive

Each compound tested received a call. Report the one for "CN(C)c1nc(NCc2ccccc2)nc(N/N=C/c2ccc(Cl)cc2Cl)n1" .
inactive

Each compound tested received a call. Report the one for "Cc1o[nH]c(=O)c1CC[C@H](N)C(=O)O" .
inactive

Each compound tested received a call. Report the one for COc1ccc(C2/C(=C(/O)c3ccccc3)C(=O)C(=O)N2CC(C)O)c(OC)c1 (centres undefined) .
inactive

Each compound tested received a call. Report the one for "N/N=C1/c2ccccc2N[C@H]1OC(=O)Nc1ccccc1" .
active

Each compound tested received a call. Report the one for "CCn1c2ccccc2c2cnc(N=CN(C)C)c(C#N)c21" .
active

Each compound tested received a call. Report the one for "CCOC(=O)c1nnn(-c2nonc2N)c1-c1ccc(C)cc1" .
inactive

Each compound tested received a call. Report the one for "N#Cc1ccccc1/C=N/Nc1nc(-c2ccccc2)c2cc(Cl)ccc2n1" .
active

Each compound tested received a call. Report the one for "CCn1c2ccccc2c2cc(/C=N/n3cn[nH]c3=S)ccc21" .
inactive

Each compound tested received a call. Report the one for "O=C(Nc1ccccc1)[C@@]12C[C@@H]1/C(=N/O)c1ccccc1O2" .
inactive

Each compound tested received a call. Report the one for "CC(=O)N1CCN(c2ccc(NC(=O)c3ccc(C)cc3)cc2)CC1" .
inactive

Each compound tested received a call. Report the one for "CCOC(=O)c1nnn(-c2nc(OC)nc(N3CCCCC3)n2)c1-c1ccccc1" .
active

Each compound tested received a call. Report the one for "O=[N+]([O-])c1cc(C(F)(F)F)ccc1NCCCCNS(=O)(=O)c1ccc2ccccc2c1" .
inactive

Each compound tested received a call. Report the one for "CCCC(=O)N1CCN(c2ccc(NC(=O)c3ccc(OCC)c([N+](=O)[O-])c3)cc2)CC1" .
inactive

Each compound tested received a call. Report the one for "CCOC(=O)c1nnn(-c2nonc2N)c1-c1ccccc1" .
inactive

Each compound tested received a call. Report the one for "O=C(COc1ccccc1)Nc1ccc(-c2nnc(-c3ccco3)o2)cc1" .
inactive

Each compound tested received a call. Report the one for "Nc1nc(-c2ccccc2)cc(-c2ccccc2O)n1" .
inactive

Each compound tested received a call. Report the one for "COc1ccc(C(=O)NCc2cn3ccccc3n2)cc1" .
inactive

###

Tested on: Cytochrome P450 2D6 (Homo sapiens) (UniProt P10635)
Sequence (P10635 whole entry, looked up): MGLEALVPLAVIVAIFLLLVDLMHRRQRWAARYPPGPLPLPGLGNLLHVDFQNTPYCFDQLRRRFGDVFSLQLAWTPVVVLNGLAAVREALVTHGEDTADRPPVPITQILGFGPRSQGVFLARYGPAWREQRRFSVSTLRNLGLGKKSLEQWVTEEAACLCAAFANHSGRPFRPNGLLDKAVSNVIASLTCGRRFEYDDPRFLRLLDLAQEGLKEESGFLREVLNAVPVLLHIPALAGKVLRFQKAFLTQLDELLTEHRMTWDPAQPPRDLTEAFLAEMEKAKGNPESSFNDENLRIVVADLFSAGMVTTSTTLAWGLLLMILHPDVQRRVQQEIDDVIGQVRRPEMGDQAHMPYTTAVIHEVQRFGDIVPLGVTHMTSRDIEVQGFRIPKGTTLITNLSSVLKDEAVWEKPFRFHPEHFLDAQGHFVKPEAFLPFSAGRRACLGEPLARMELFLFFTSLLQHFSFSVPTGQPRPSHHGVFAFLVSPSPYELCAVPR
Method summary: Cytochrome panel assay with activity outcomes
Condition notes: recombinant CYP, pro-luciferin dealkylation, luminescence, p450-cyp2d6; series mostly up to 57.1 µM
Screen size: about 16,000 compounds; about 2,600 (16%) were called active. Roughly 20% stayed inconclusive and do not appear here. Calls come from the whole dose curve; as a rule, active = well fitted curve in the direction sought with a large enough effect; inconclusive = small, poorly fitted or top-dose-only effect, or effect the other way; inactive = no such curve, though single readings can be large or run the other way. A selection follows.
// allowed return values: active, inactive

Each compound tested received a call. Report the one for "CN(Cc1ccco1)c1nc(-c2ccoc2)nc2ccccc12" .
active

Each compound tested received a call. Report the one for "N#Cc1cccc(-c2nc(NCc3cccnc3)c3ccccc3n2)c1" .
inactive

Each compound tested received a call. Report the one for "N[C@H](C(=O)O)[C@@H]1[C@@H](C(=O)O)C1(F)F" .
active

Each compound tested received a call. Report the one for "CCCn1c(=O)c2c(ncn2C)n(CCC)c1=O" .
inactive

Each compound tested received a call. Report the one for "C/C(=N/O)c1ccc2cc(Br)c3ccccc3c2c1" .
active

###

Tested on: Cytochrome P450 2D6 (Homo sapiens) (UniProt P10635)
Method summary: Cytochrome panel assay with activity outcomes
Condition notes: recombinant CYP, pro-luciferin dealkylation, luminescence, p450-cyp2d6; series mostly up to 57.1 µM
Protocol: The P450 gene superfamily is involved in the metabolism and clearance of xenobiotics. This assay used various human CYP P450 isozymes to measure the dealkylation of various pro-luciferin substrates to luciferin. The luciferin is then measured by luminescence after the addition of a luciferase detection reagent. […] Inhibitors and some substrates limit the production of luciferin, and decrease measured luminescence. […] 8, Detection, 1 sec, ViewLux luminescent read […]
The campaign covered roughly 16,000 compounds. About 2,600 (16%) were called active. Not shown: some 20% with an inconclusive outcome. These entries were drawn from the full list.
Measurement label: AC50

# annotated cases, reported AC50 shown
CC1CCN(c2ccc(S(=O)(=O)Nc3cc(C(=O)O)cc(C(=O)O)c3)cc2[N+](=O)[O-])CC1 ... inactive
COc1cc2c(C(=O)NCc3ccc(C)o3)cn(CC(C)C)c(=O)c2cc1OC ... inactive
CC1CCN(CCCCOc2ccccc2[N+](=O)[O-])CC1 ... 0.251 µM (active)
CC1(C)Cc2c(sc3nc(-c4ccccc4)n(N)c(=O)c23)CO1 ... inactive

Provide measured AC50 on Cytochrome P450 2D6 (Homo sapiens) (UniProt P10635) for "CC(C)(C)CC(=O)NC(=S)N1CCCCCC1" please.
inactive

Provide measured AC50 on Cytochrome P450 2D6 (Homo sapiens) (UniProt P10635) for "Cc1cccc(CNc2ncncc2-c2ccccc2C(F)(F)F)c1" please.
12.6 µM (active)

Provide measured AC50 on Cytochrome P450 2D6 (Homo sapiens) (UniProt P10635) for "CSc1ccc(NC(=O)NCCCN2CCN(c3ccccc3F)CC2)cc1" please.
3.55 µM (active)

Provide measured AC50 on Cytochrome P450 2D6 (Homo sapiens) (UniProt P10635) for "Cc1ccc(CS(=O)(=O)CCC(=O)NCCCOC(C)C)cc1" please.
inactive

Provide measured AC50 on Cytochrome P450 2D6 (Homo sapiens) (UniProt P10635) for Cc1cc(C)n(-c2nc(NCC(C)O)c3c4c(sc3n2)COC(C)(C)C4)n1 (stereo not given) please.
inactive

Provide measured AC50 on Cytochrome P450 2D6 (Homo sapiens) (UniProt P10635) for "CCOC(=O)c1cc(-c2ccc(Cl)cc2)nc2c1c(C)nn2CCC#N" please.
inactive

Provide measured AC50 on Cytochrome P450 2D6 (Homo sapiens) (UniProt P10635) for "Cc1cnc(CNc2cc(-c3ccccc3C(F)(F)F)ncn2)cn1" please.
inactive

Provide measured AC50 on Cytochrome P450 2D6 (Homo sapiens) (UniProt P10635) for "COC(=O)COc1ccc2c(-c3cccc([N+](=O)[O-])c3)cc(=O)oc2c1" please.
inactive

Provide measured AC50 on Cytochrome P450 2D6 (Homo sapiens) (UniProt P10635) for "CCCc1nnc(SCC(=O)N2CCCCC2)n1CCCOC" please.
inactive

Provide measured AC50 on Cytochrome P450 2D6 (Homo sapiens) (UniProt P10635) for "COc1ccc(S(=O)(=O)N2CCc3ccccc3C2)cc1OC" please.
inactive

Provide measured AC50 on Cytochrome P450 2D6 (Homo sapiens) (UniProt P10635) for "Cc1ccccc1CS(=O)(=O)CCC(=O)NCCCN1CCN(c2ccccc2F)CC1" please.
3.55 µM (active)

Provide measured AC50 on Cytochrome P450 2D6 (Homo sapiens) (UniProt P10635) for "CSc1n[nH]c(-c2sccc2OCc2ccc(C)cc2)n1" please.
inactive

Provide measured AC50 on Cytochrome P450 2D6 (Homo sapiens) (UniProt P10635) for "Cc1cc(NC(=O)CSc2nc3ccsc3c(=O)n2CCCCC(=O)O)no1" please.
inactive

Provide measured AC50 on Cytochrome P450 2D6 (Homo sapiens) (UniProt P10635) for "COC(=O)c1cc(NC(=O)N2c3ccccc3Sc3ccccc32)cc(C(=O)OC)c1" please.
inactive

Provide measured AC50 on Cytochrome P450 2D6 (Homo sapiens) (UniProt P10635) for "O=C(CSc1nc2ccccc2s1)N1c2ccccc2Sc2ccccc21" please.
inactive

Provide measured AC50 on Cytochrome P450 2D6 (Homo sapiens) (UniProt P10635) for "CCc1cccc2c(C=C(C#N)C#N)cn(CC(=O)N3CCCC3)c12" please.
inactive

Provide measured AC50 on Cytochrome P450 2D6 (Homo sapiens) (UniProt P10635) for "Cc1cccc(CNc2ncncc2-c2ccccc2Cl)c1" please.
2 µM (active)
